System: MS2 coat protein
testSummary: apparent KD of MS2 coat protein, switch OFF state (with FMN for OFF switches, without FMN for ON switches); designed switch direction (-1 OFF switch, 1 ON switch): -1; higher = weaker reporter binding
recordedConditions: FMN input: 0 or 200 uM; Eterna round: R93 (includes R88 designs)
Each entry gets FALSE if its apparent KD of MS2 coat protein stays under 40 nM, and TRUE if its apparent KD of MS2 coat protein is 40 nM or above.

Here are 8 sequences together with their reported answers.
AAAAACAUAGGAUAUACAUGAGGAUCACCCAUGUUAAAAUAAAGAAAGGGAGAAAUAAGUAGAAGGAUGAAAAA [Meechl Ex3 3]; FALSE
AAAAAACAUGAGGAUCACCCAUGUGAGGAUAUCUGUAUCCAAAAGGAAGUGUAGGAUCGGAGAAGGCACUAGGA [Banishment 1 - Jieux - Exclusion 1]; TRUE
AAGUGCGCAGGAUAUACAUGAGGAUCACCCAUGUAAAGAAAAGAAAGAUCCGAAGAAAGUAGAAGGGCGUGCAA [Variant 1 of Mod 1 of Ex3 sub 3, by Tesla's Dusciple Round 1]; TRUE
ACUUGACAUGAGGAUCACCCAUGUCAGGAUAUAGUACGACAAAUAAAUAAAAGUUCUACUAGAAGGGAUAUGGA [Amethyst 53]; FALSE
AAACGUACAGGAUAUACGAAAAGAUUACGAAAGUAAUCGGGACAUGAGGAUCACCCAUGUAGAAGGGUACGAAA [Mod2 of Meechl 64% 4]; TRUE
ACCUGACAUGAGGAUCACCCAUGUCAGGAUAUGACUUCGAAAAUAAAAUAAAACGAUGUCAGAAGGGACAUGGG [Design 71: Sub-opt PB]; FALSE
AGAAUACAUGAGGAUCACCCAUGUGAGGAUAUGCAAAUAAAAAUAAAAUAAAAUAAUUGCAGAAGGCACGAAAG [EX 1 May 23]; TRUE
AAGGGACAUGAGGAUCACCCAUGUAAGGAUAUCGGAAAAGGAAAAAAAAAAAAGAAGACGAGAAGGUACAAAAA; TRUE

Prompt line: Decide: apparent KD of MS2 coat protein of AGCUAGUCAGGAUAUACGCAAACGAACGAAGCAGUGAAGGGACAUGAGGAUCACCCAUGUAGAAGGGACUAGCA [Diamond 30] >= 40 nM?
Response line: TRUE

* * *

System: MS2 coat protein
testSummary: apparent KD of MS2 coat protein; designed switch direction (-1 OFF switch, 1 ON switch): -1; higher = weaker reporter binding
recordedConditions: input ligand: microRNA oligo, concentration not stated
apparent KD of MS2 coat protein of 20 nM or higher: y. Under 20 nM: n.

// below: answered sequences
AAGUCAACAUGAGGAUCACCCAUGUCCAAGUUGAUGUCCUGUGAGGAUAUGUGUAAACGGCCGGCACAGAAGGCACAAGACGCG [Eternabot solution 5] (Eterna round: R96, puzzle: Exclusion NG 3); y
AAUUCUAGGGUCAGACGCACAAGCUUUUUGCUCGUUUUAACAUGAGGAUCACCCAUGUCUAGUGGAUCUGAUCGGGC [JL ViennaUCT Isreen mod 8] (Eterna round: R96, puzzle: Sensor v3, turn-off variant 2); y
ACAUGAGGAUCACCCAUGUGACCACAAUGGCUGAUGUAACAACAGGAUAUGCGUGAAUAUCUAACGCAGAAGGGUUAUGACUGG [Deportation 60 - Jieux - Exclusion NG 3] (Eterna round: R96, puzzle: Exclusion NG 3); y
UGAUCUAGCGGAGGAUAUACAUGAGGAUCACCCAUGUAGACUCUAUGACCGUAGUCGUGGAGUGUGUAGAAGGCCGCUAGAUCU [JL ENG2 3.74] (Eterna round: R96, puzzle: Exclusion NG 2); n
ACAAGCUUAGGUUUUCAUAACAUGAGGAUCACCCAUGUUCGUCUUAUAAAAAUAAAAAUAAAAAACAAAAAAUAAAA [Sensor V2: 66] (Eterna round: R96, puzzle: Sensor v2, turn-off variant); y
AACAGUACAGGAUAUACAUGAGGAUCACCCAUGUGAGAAACCACUGGCGUACCAGAAAGUAGAAGGGUACUGGA [Moding Maslow Revisited (73) 29] (Eterna round: R96, puzzle: Exclusion 3); y
CAUUAUUAUCGAGGAUAUCCUAUUGAAAUUCUGGGAGAAGGCGGACUCAACAUGAGGAUCACCCAUGUGGGACGGAUGCUAGGA [salish99_exng1_r04_602] (Eterna round: R96, puzzle: Exclusion NG 1); n
UUGAUGUCAUCAGGAUAUAGUAUUUAAGACAUAUCUUCUUUCAAACAUGAGGAUCACCCAUGUCGCUAGAAGGGAUUAUUGAUU [JR_ExcNG2_Sub083] (Eterna round: R96, puzzle: Exclusion NG 2); n
AAACCGGGCGCACCUCAGUCACAUGAGGAUCACCCAUGUUCUGAGGAUAUGCAUCCAAACGGAACGCAGAAGGCGGAACGUAAC [Bibidianer] (Eterna round: R96, puzzle: Exclusion NG 3); n
UGAUCUAGCGGAGGAUAUACAUGAGGAUCACCCAUGUAUAGUCUAUGACCGUAGUCGUGGAACGUGUAGAAGGCCGCUAGAUCU [JL ENG2 3.78] (Eterna round: R96, puzzle: Exclusion NG 2); n

Prompt line: Dear colleague, could you confirm whether ACGCAUUGCCUUUGGUAGUGCGUAACAUGAGGAUCACCCAUGUAGGAUAUGGUAGGCUUUGCUUACCAGAAGGACAUUAUAAUC [Mat - Exclusion NG 3 - Mod of JL - D8] (Eterna round: R96, puzzle: Exclusion NG 3) has apparent KD of MS2 coat protein at or above 20 nM?
Response line: n

Prompt line: Decide: apparent KD of MS2 coat protein of ACAUGUUAUGUAGGAUAUUGGACACAUGAGGAUCACCCAUGUAACCGGAGGCUUUACUAUGAGUUCGAGAAGGGUAUGAACAUG [Ex NG2 #67] (Eterna round: R96, puzzle: Exclusion NG 2) >= 20 nM?
Response line: y

Prompt line: Identify whether the reported apparent KD of MS2 coat protein of the following sequence is 20 nM or greater: UUUAAGGGAAUUAAGAUCACAUGAGGAUCACCCAUGUAUAUAUAGGAUAUCAGCUCGUGUAGAGCUGAGAAGGAUAUAUACAUA [ExNG3/6-A3] (Eterna round: R96, puzzle: Exclusion NG 3)
Response line: y

Prompt line: # bool: apparent KD of MS2 coat protein of CCUCCGGUACGAGGAUAUCUGACGGCCGCCGGAGGAGAAGGCGUACAUGAGGAUCACCCAUGUCCAGCGUGCACCACGCUGGUU [Usbius] (Eterna round: R96, puzzle: Exclusion NG 1) >= 20 nM
Response line: y

Prompt line: Check if apparent KD of MS2 coat protein >= 20 nM (inclusive). Item: GCAGCAUAGUUUACUAACUGUUACAUGAGGAUCACCCAUGUUUAGGAUAUGGUCUGGAUUACAGGCCAGAAGGAAACAAGCUGC [Eli exng3 - 033] (Eterna round: R96, puzzle: Exclusion NG 3)
Response line: n
